Source: ChEMBL document CHEMBL1137089

Target: Melanocortin receptor 4 (Mus musculus)
Sequence (P56450 whole entry): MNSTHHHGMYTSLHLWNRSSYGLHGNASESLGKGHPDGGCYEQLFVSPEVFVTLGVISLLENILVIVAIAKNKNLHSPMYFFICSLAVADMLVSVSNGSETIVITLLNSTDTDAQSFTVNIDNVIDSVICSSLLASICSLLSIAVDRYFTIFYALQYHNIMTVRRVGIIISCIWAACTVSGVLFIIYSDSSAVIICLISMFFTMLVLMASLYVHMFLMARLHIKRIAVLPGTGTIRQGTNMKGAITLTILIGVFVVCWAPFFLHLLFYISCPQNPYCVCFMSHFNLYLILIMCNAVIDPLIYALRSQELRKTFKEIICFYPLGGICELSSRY
Experiment: Inhibitory concentration towards melanocortin MC4 receptor by displacing radioligand [125I]NDP-MSH
Where a SMILES comes first, the peptide text is derived from it. Bridges are numbered along the chain shown (N, C = ends). [ ]: non-standard residue; d: D form. Dap = NC[C@H](N)C(=O)O
OBSERVATION_TYPE: pIC50
# pIC50: negative log10 of molar concentration; output just the value

Query block: Tell me its pIC50 given C[C@@H]1NC(=O)[C@H](CC(N)=O)NC(=O)[C@H](Cc2ccccc2)NC(=O)[C@H](CCCNC(=N)N)NC(=O)[C@H](Cc2c[nH]c3ccccc23)NC(=O)[C@@H](NC(=O)[C@@H](N)Cc2ccc(O)cc2)CC(=O)NC[C@@H](C(=O)N[C@@H](Cc2ccc(O)cc2)C(N)=O)NC(=O)[C@H](Cc2ccccc2)NC1=O (H-YDWRFNAF[Dap]Y-NH2; lactam 2-9) as the entry.
Result block: 4.99

Query block: Tell me its pIC50 given C[C@@H]1NC(=O)[C@H](CC(N)=O)NC(=O)[C@H](Cc2c[nH]c3ccccc23)NC(=O)[C@H](CCCNC(=N)N)NC(=O)[C@@H](Cc2ccccc2)NC(=O)[C@@H](NC(=O)[C@@H](N)Cc2ccc(O)cc2)CC(=O)NC[C@@H](C(=O)N[C@@H](Cc2ccc(O)cc2)C(N)=O)NC(=O)[C@H](Cc2ccccc2)NC1=O (H-YD[dF]RWNAF[Dap]Y-NH2; lactam 2-9) as the entry.
Result block: 5.17

Query block: Tell me its pIC50 given C[C@@H]1NC(=O)[C@H](CC(N)=O)NC(=O)[C@H](Cc2c[nH]c3ccccc23)NC(=O)[C@H](CCCNC(=N)N)NC(=O)[C@H](Cc2ccccc2)NC(=O)[C@@H](NC(=O)[C@@H](N)Cc2ccc(O)cc2)CC(=O)NC[C@@H](C(=O)N[C@@H](Cc2ccc(O)cc2)C(N)=O)NC(=O)[C@H](Cc2ccccc2)NC1=O (H-YDFRWNAF[Dap]Y-NH2; lactam 2-9) as the entry.
Result block: 5.04

Query block: Tell me its pIC50 given `C[C@@H]1NC(=O)[C@H](CC(N)=O)NC(=O)[C@H](Cc2ccccc2)NC(=O)[C@H](Cc2ccccc2)NC(=O)[C@H](CCCNC(=N)N)NC(=O)[C@@H](NC(=O)[C@@H](N)Cc2ccc(O)cc2)CC(=O)NC[C@@H](C(=O)N[C@@H](Cc2ccc(O)cc2)C(N)=O)NC(=O)[C@H](Cc2ccccc2)NC1=O` as the entry.
Result block: 5.32
